Source listed as ChEMBL document CHEMBL3822435.

- System: MCF7
- procedureDetails: cells
- assayContext: Homo sapiens, MCF7, 72 h
- Description: Antiproliferative activity against ER-positive human MCF7 cells assessed as reduction in cell viability measured after 72 hrs by AlamarBlue assay
Parameter log10 IC50: see the listing below.
measuredQuantity: log10 IC50 (log10 of the value in µM)

COc1ccc(-c2c(C)c3cc(OC)ccc3n2CCCCN(C)C(=O)/C(=C/c2ccc(OC)c(O)c2)c2cc(OC)c(OC)c(OC)c2)cc1; 1.91
CNCCCCCCCCn1c(-c2ccc(O)cc2)c(C)c2cc(O)ccc21; 1.59
Cc1c(-c2ccc(O)cc2)n(Cc2ccc(O)cc2)c2ccc(O)cc12; 1.59
Cc1c(-c2ccc(O)cc2)n(CCCCCCn2c(-c3ccc(O)cc3)c(C)c3cc(O)ccc32)c2ccc(O)cc12; 0.91
Cc1c(-c2ccc(O)cc2)n(CCCCCCCCCCCCn2c(-c3ccc(O)cc3)c(C)c3cc(O)ccc32)c2ccc(O)cc12; 0.72
CCCCn1c(-c2ccc(O)cc2)c(C)c2cc(O)ccc21; 1.53
CNCCCCn1c(-c2ccc(O)cc2)c(C)c2cc(O)ccc21; 1.61
Cc1c(-c2ccc(O)cc2)n(Cc2ccc(F)cc2)c2ccc(O)cc12; 1.61
CNCCCCCn1c(-c2ccc(O)cc2)c(C)c2cc(O)ccc21; 1.69

###

- Test system: MCF7
- procedureDetails: cells
- assayContext: Homo sapiens, MCF7, 72 h
The following molecules are listed with their measured IC50 values.
measuredQuantity: IC50

Cc1c(-c2ccc(O)cc2)n(CCCCn2c(-c3ccc(O)cc3)c(C)c3cc(O)ccc32)c2ccc(O)cc12; 2.75 µM
CNCCCCCCn1c(-c2ccc(O)cc2)c(C)c2cc(O)ccc21; 41.7 µM
Cc1c(-c2ccc(O)cc2)n(CCCCCn2c(-c3ccc(O)cc3)c(C)c3cc(O)ccc32)c2ccc(O)cc12; 4.16 µM
CNCCCCCCCCCCCCn1c(-c2ccc(O)cc2)c(C)c2cc(O)ccc21; 33 µM
Cc1c(-c2ccc(O)cc2)n(CCCCCCCCn2c(-c3ccc(O)cc3)c(C)c3cc(O)ccc32)c2ccc(O)cc12; 6.6 µM

###

This section lists IC50 readings for Estrogen receptor (Homo sapiens).
measuredQuantity: IC50 (nM)

COc1ccc(/C=C(/C(=O)N(C)CCCCCCCCCCCCn2c(-c3ccc(O)cc3)c(C)c3cc(O)ccc32)c2cc(OC)c(OC)c(OC)c2)cc1O; 574
Cc1c(-c2ccc(O)cc2)n(CCCCn2c(-c3ccc(O)cc3)c(C)c3cc(O)ccc32)c2ccc(O)cc12; 436
CNCCCCCCCCCCCCn1c(-c2ccc(O)cc2)c(C)c2cc(O)ccc21; 380

###

Let's look at some molecules and their measured IC50.
- Test system: MCF7
- procedureDetails: cells
- assayContext: Homo sapiens, MCF7, 72 h
measuredQuantity: IC50 (µM)

Cc1c(-c2ccc(O)cc2)n(CCO)c2ccc(O)cc12; 17.7
COc1ccc(/C=C(/C(=O)N(C)CCCCCCCCn2c(-c3ccc(O)cc3)c(C)c3cc(O)ccc32)c2cc(OC)c(OC)c(OC)c2)cc1O; 2.95
COc1ccc(/C=C(/C(=O)N(C)CCCCCn2c(-c3ccc(O)cc3)c(C)c3cc(O)ccc32)c2cc(OC)c(OC)c(OC)c2)cc1O; 2.93
COc1ccc(/C=C(/C(=O)N(C)CCCCn2c(-c3ccc(O)cc3)c(C)c3cc(O)ccc32)c2cc(OC)c(OC)c(OC)c2)cc1O; 1.99
Cc1c(-c2ccc(O)cc2)n(Cc2ccc(Cn3c(-c4ccc(O)cc4)c(C)c4cc(O)ccc43)cc2)c2ccc(O)cc12; 3.5
COc1ccc(/C=C(/C(=O)N(C)CCCCCCCCCCCCn2c(-c3ccc(O)cc3)c(C)c3cc(O)ccc32)c2cc(OC)c(OC)c(OC)c2)cc1O; 1.86
COc1cc(Cn2c(-c3ccc(O)cc3)c(C)c3cc(O)ccc32)cc(OC)c1OC; 332
COc1ccc(/C=C(/C(=O)N(C)CCCCCCn2c(-c3ccc(O)cc3)c(C)c3cc(O)ccc32)c2cc(OC)c(OC)c(OC)c2)cc1O; 2.34
